Taken from paper PMC9826232.

# Test system: tErk in A375 cells
# PROTOCOL DETAILS: HTRF assay, tErk in A375
# Assay type: cell-based
# RUN CONDITIONS: Homo sapiens, A-375, read-out: tErk IC50
QUANTITY NAME: IC50 (µM)

(P) Oc1ccc(C(=NOCc2ccccc2)c2ccc(O)cc2)cc1
(Q) O=S(=O)(NN=C(c1ccc(O)cc1)c1ccc(O)cc1)c1ccc(Cl)cc1
Between item P and item Q , which reported IC50 is smaller? Mark your selection by writing its label. P
(P: 77.2 µM, Q: 255 µM)

* * *

# Tested on: HCT15 (G13D)
# PROTOCOL DETAILS: CellTiter-Glo cell viability assay, HCT15
# Assay type: cell-based
# RUN CONDITIONS: Homo sapiens, HCT-15, 72 h, read-out: Cellular activity IC50, HCT15 (G13D)
pIC50: −log10 of the molar value.
QUANTITY NAME: pIC50

Report its pIC50 with HCT15 (G13D) as the test system: O=[N+]([O-])c1ccc(S(=O)(=O)NN=C(c2ccc(O)cc2)c2ccc(O)cc2)cc1 [8 e] 4.29

(1) O=[N+]([O-])c1ccc(NN=C(c2ccc(O)cc2)c2ccc(O)cc2)c([N+](=O)[O-])c1 [7 a]
(2) Oc1ccc(C(=NOCc2ccccc2)c2ccc(O)cc2)cc1 [compound 11]
(3) O=S(=O)(NN=C(c1ccc(O)cc1)c1ccc(O)cc1)c1ccc(Cl)cc1 [8 c]
Task for the reader: rank each entry by its pIC50, from the minimum upward. // list labels; follow requested order 3, 2, 1

* * *

# System: A549 (G12S)
# PROTOCOL DETAILS: CellTiter-Glo cell viability assay, A549
# Format: cell-based
# RUN CONDITIONS: Homo sapiens, A549, 72 h, read-out: Cellular activity IC50, A549 (G12S)
pIC50: −log10 of the molar value.
QUANTITY NAME: pIC50

Output pIC50 of `O=S(=O)(NN=C(c1ccc(O)cc1)c1ccc(O)cc1)c1ccc(Cl)cc1` 4.15

(a) COc1ccc(S(=O)(=O)NN=C(c2ccc(O)cc2)c2ccc(O)cc2)cc1
(b) Oc1ccc(C(=NNc2ccccn2)c2ccc(O)cc2)cc1
(c) O=C(NN=C(c1ccc(O)cc1)c1ccc(O)cc1)c1ccccc1
(d) O=[N+]([O-])c1ccc(NN=C(c2ccc(O)cc2)c2ccc(O)cc2)c([N+](=O)[O-])c1
Task field, ranking: reported pIC50, descending order. // list labels; follow requested order d, b, c, a

* * *

# Test system: HCT15 (G13D)
# PROTOCOL DETAILS: CellTiter-Glo cell viability assay, HCT15
# Assay type: cell-based
# RUN CONDITIONS: Homo sapiens, HCT-15, 72 h, read-out: Cellular activity IC50, HCT15 (G13D)
QUANTITY NAME: IC50 (µM)

Output IC50 of `O=C(c1nc2cccc(O)c2[nH]1)c1cc2cccc(O)c2o1` 37.7

(1) Oc1ccc(C(=NNc2ccc(F)cc2)c2ccc(O)cc2)cc1
(2) Oc1ccc(C(=NNc2ccc(Cl)cc2)c2ccc(O)cc2)cc1
Which entry has a larger number for IC50, 1 or 2 ? Mark your selection by writing its label. 2
